Molecular target: hM1 (human Muscarinic receptor subtype 1) (Homo sapiens, UniProt P11229)
Construct: expressed in transfected cells; host or cells: CHO cells (Chinese hamster ovary cells, ATCC)
Sequence (P11229 whole entry): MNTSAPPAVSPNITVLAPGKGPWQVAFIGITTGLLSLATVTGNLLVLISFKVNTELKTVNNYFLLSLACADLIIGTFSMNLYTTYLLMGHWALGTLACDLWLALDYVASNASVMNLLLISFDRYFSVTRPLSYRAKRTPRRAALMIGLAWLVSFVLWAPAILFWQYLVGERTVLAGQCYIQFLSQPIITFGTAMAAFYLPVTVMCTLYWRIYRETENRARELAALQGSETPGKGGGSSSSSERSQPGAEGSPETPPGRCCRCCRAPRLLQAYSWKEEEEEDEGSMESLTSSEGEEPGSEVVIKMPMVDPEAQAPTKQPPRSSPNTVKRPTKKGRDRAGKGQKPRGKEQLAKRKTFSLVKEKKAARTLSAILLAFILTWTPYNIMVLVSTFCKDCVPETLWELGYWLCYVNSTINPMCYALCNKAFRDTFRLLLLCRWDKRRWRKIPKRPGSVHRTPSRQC
Experiment: Human M1 calcium mobilization FLIPR assay
Format: cell-based
Settings: receptor expressed in CHO cells, intracellular Ca2+ release; read-out: hM1 EC50
Procedure: The compound activity in the present invention (EC50 or IC50) is measured using a 384 plate-based imaging assay that monitors drug induced intracellular Ca^2+ release in whole cells. […] Inhibition of hM3 and hM5 by compounds is determined by the decrease in fluorescent signal in response to 2 nM acetylcholine activation. Prior to experiment, the cell culture medium is removed from the plates by inversion. […] Cell plates are then transferred to the FLIPR, ready for compound additions. […]
pEC50: −log10 of the molar value.
measured.endpoint: pEC50

>  <molecule>
CCOC(=O)N1CCC(C)(N2CCC(N3C(=O)NC[C@H]4CCCC[C@@H]43)CC2)CC1 [Example 7]

>  <target.of.assay>
hM1 (human Muscarinic receptor subtype 1) (Homo sapiens, UniProt P11229)

>  <pEC50>
8.35

$$$$

[A] CC(C)OC(=O)N1CCC(N2CCC(N3C(=O)OC[C@H]4CCCC[C@@H]43)CC2)CC1 [Example 16]
[B] CCOC(=O)N1CCC(N2CCC(N3C(=O)NC[C@H]4CCCC[C@@H]43)CC2)CC1 [Example 1]
Challenge: Given the two records A and B , choose the one whose pEC50 value is lower. Use the label to indicate which entry you chose.
Response given: A
(A: 6.66, B: 8.80)

###

Molecular target: human M2 receptor (human Muscarinic receptor subtype 2) (Homo sapiens, UniProt P08172)
Sequence (P08172 1-466): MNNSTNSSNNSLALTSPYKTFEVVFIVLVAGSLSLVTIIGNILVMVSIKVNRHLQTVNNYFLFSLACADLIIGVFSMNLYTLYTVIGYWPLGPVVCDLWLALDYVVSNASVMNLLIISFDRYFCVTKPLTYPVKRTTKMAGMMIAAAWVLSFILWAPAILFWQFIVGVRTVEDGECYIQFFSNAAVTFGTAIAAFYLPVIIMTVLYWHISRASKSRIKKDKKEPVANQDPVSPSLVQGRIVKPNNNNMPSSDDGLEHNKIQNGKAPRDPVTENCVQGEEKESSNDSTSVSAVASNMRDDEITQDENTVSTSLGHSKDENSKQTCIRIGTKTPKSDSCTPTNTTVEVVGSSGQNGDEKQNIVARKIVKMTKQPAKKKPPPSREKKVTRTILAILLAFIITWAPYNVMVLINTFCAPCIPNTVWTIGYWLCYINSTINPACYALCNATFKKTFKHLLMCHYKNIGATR
Experiment: hM2 receptor GTPγS binding
Settings: CHO membranes, [35S]GTPγS binding
pEC50: −log10 of the molar value.
measured.endpoint: pEC50

[1] CCOC(=O)N1CCC(C)(N2CCC(N3C(=O)NC[C@H]4CCCC[C@@H]43)CC2)CC1
[2] CCOC(=O)N1CCC(C)(N2CCC(N3C(=O)CO[C@H]4CCCC[C@@H]43)CC2)C1 (single isomer, unassigned) [Example 18]
Challenge: Between item 1 and item 2 , which reported pEC50 is smaller? Reply briefly: the label of your chosen item.
Response given: 2
(2: 5.43, 1: 7.15)

###

target: UniProtKB P08912; assay: Human M5 calcium mobilization FLIPR assay; conditions: receptor expressed in CHO cells, intracellular Ca2+ release
Sequence (P08912 whole entry): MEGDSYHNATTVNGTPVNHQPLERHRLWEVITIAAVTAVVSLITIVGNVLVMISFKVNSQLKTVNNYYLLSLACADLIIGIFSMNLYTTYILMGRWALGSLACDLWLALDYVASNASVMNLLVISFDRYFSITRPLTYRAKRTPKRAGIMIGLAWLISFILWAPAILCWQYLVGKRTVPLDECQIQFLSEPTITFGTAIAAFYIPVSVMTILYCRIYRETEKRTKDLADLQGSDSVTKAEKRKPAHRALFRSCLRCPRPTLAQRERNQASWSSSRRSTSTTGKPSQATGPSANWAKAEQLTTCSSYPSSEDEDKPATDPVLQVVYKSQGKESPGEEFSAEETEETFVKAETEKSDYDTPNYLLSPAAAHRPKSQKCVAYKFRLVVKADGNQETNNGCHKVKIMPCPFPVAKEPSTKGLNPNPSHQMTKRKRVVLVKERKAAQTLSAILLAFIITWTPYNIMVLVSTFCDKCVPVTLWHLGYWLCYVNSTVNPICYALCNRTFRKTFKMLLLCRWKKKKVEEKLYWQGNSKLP
measured.endpoint: EC50

EC50 recorded for this molecule, CCOC(=O)N1CCC(N2CCC(N3C(=O)CO[C@H]4CCCC[C@@H]43)CC2)CC1 , is 0.0977 µM
